# assayOverview: qHTS RealTime-Glo MT Cell Viability Assay in HepG2 cells - 0 hour (AID 1224889); note: nearly all actives have a fitted effect of over 50% in size
# assayConditions: RealTime-Glo luminescence; series mostly up to 76.8 µM
Results filed as inconclusive are left out. Active and inactive are the calls of the source. Calls come from the whole dose curve; as a rule, active = well fitted cell-killing curve with a large enough effect in the repeat runs; inconclusive = weak or mixed curves, or effect the other way; inactive = flat fitted curve, though single readings scatter.
Labels: active, inactive

| compound | cat |
| --- | --- |
| CCCCC(CC)COC(=O)CCCCCCCCC(=O)OCC(CC)CCCC (stereo not drawn) | inactive |
| CC(C)(CO)[N+](=O)[O-] | inactive |
| CCN(CC)c1ccc(C(=C2C=CC(=[N+](CC)CC)C=C2)c2cc(S(=O)(=O)O)ccc2S(=O)(=O)[O-])cc1 | inactive |
| C=CC(=O)OCCOc1ccccc1 | inactive |
| COCC(C)OC(C)=O (stereo not drawn) | inactive |
| O=C(O)C1(C(=O)O)CCC1.[NH2-].[NH2-].[Pt+2] | inactive |
| OCCN1CCN(CCCN2c3ccccc3C=Cc3ccccc32)CC1 | inactive |
| O=C(NCC1CN(c2ccc(N3CCOCC3=O)cc2)C(=O)O1)c1ccc(Cl)s1 (stereo not drawn) | inactive |
| CCCCCCOC(=O)NC(=N)c1ccc(NCc2nc3cc(C(=O)N(CCC(=O)OCC)c4ccccn4)ccc3n2C)cc1 | inactive |
| CCCCCCCN | inactive |
| CCCCCCCCCOS(=O)(=O)O | inactive |
| C[Si](C)(CCCN)O[Si](C)(C)CCCN | inactive |
| COc1cc(Cl)ccc1Oc1ccc(Cl)cc1Cl | inactive |
| CCCCCCCCCCCCCCCCCCOS(=O)(=O)O | inactive |
| Cc1ccc(C(=O)Oc2ccc(C(O)CNC(C)(C)C)cc2OC(=O)c2ccc(C)cc2)cc1 (stereo not drawn) | inactive |
| CCC(C)O (stereo not drawn) | inactive |
| C=C1[C@H]2CC[C@@H]3[C@H]2C(C)(C)CCC[C@]13C | inactive |
| S=C([S-])NCCNC(=S)[S-].[Mn+2] | inactive |
| CC1=CC=C(C(C)C)CC1 | inactive |
| CN(Cc1ccc(C(C)(C)C)cc1)Cc1cccc2ccccc12 | inactive |
| O=C1OC(=O)C2C3C=CC(C3)C12 (stereo not drawn) | inactive |
| CCCCC | inactive |
| O=C(OCCCCCCOC(=O)c1ccccc1)c1ccccc1 | inactive |
| CC(=O)c1ccc2c(c1)N(CCCN1CCC(CCO)CC1)c1ccccc1S2 | inactive |
| CCOC(=O)C1=C[C@]2(CC)CCCN3CCc4c(n1c1ccccc41)[C@@H]32 | inactive |
| c1ccc(CNCCNCc2ccccc2)cc1 | inactive |
| CCC(C)c1cc(C(C)(C)C)c(O)c(C(C)(C)C)c1 (stereo not drawn) | inactive |
| C[C@@H](c1ncncc1F)C(O)(Cn1cncn1)c1ccc(F)cc1F (stereo partly drawn) | inactive |
| CCOC(=O)C(F)(F)F | inactive |
| c1ccc(C(O[C@H]2CCCN(CCc3ccc4c(c3)OCO4)C2)c2ccccc2)cc1 | inactive |
| OC[C@H]1O[C@@H](OCCc2ccc(O)cc2)[C@H](O)[C@@H](O)[C@@H]1O | inactive |
| C[C@@H]1C[C@H]2[C@@H]3CCC4=CC(=O)C=C[C@]4(C)[C@@]3(F)[C@@H](O)C[C@]2(C)[C@@]1(O)C(=O)COC(=O)c1ccncc1 | active |
| CCn1cc(C(=O)O)c(=O)c2cnc(N3CCNCC3)nc21 | inactive |
| Cc1cc(C(=O)O)ccc1[N+](=O)[O-] | inactive |
| CCCCC1=NC2(CCCC2)C(=O)N1Cc1ccc(-c2ccccc2-c2nn[nH]n2)cc1 | inactive |
| O=S(=O)(Oc1ccc(Cl)cc1)c1ccccc1 | inactive |
| CCOC(=O)c1cccnc1 | inactive |
| CNCCCCOc1ccccc1Cc1ccccc1 | inactive |
| CC1=CCCC(C)(C)C12CCC(C)O2 (stereo not drawn) | inactive |
| CC(COCCO)OCCO (stereo not drawn) | inactive |
| CCCCCCc1ccc(-c2ccc(C#N)cc2)cc1 | inactive |
| C=CCOc1ccccc1OCC(O)CNC(C)C (stereo not drawn) | inactive |
| O=C(O)C1(C(=O)Nc2ccc(Cl)cc2Cl)CC1 | inactive |
| C[C@@H]1C[C@H]2O[C@@]3(O[C@@H]2C(C)(C)O)[C@H](O)[C@@]2(C)[C@@H]4CC[C@H]5C(C)(C)[C@@H](O[C@@H]6OC[C@@H](O)[C@H](O)[C@H]6O)CC[C@@]56C[C@@]46CC[C@]2(C)[C@@H]13 | active |
| Nc1ccc(S(=O)(=O)Nc2ccccc2)cc1 | inactive |
| COC(=O)C1=C(C)NC(COC(N)=O)=C(C(=O)OC(C)C)C1c1cccc(Cl)c1Cl (stereo not drawn) | active |
| COc1ccc2cccc(CCNC(C)=O)c2c1 | inactive |
| C/C=C(/C(=C/C)c1ccc(OC(C)=O)cc1)c1ccc(OC(C)=O)cc1 | inactive |
